All values here come from ChEMBL document CHEMBL1833821.

# Tested on: Rattus norvegicus
# Procedure Text: Behavioral toxicity in po dosed albino Sprague-Dawley rat assessed as time of peak effect
# Assay type: organism-based
# Assay Conditions: in vivo
Measured Quantity: Time (h)
Answer format: numeric, h implied, no suffix.

## Input Please give the measured Time for this molecule: CC(C)[C@@H](N)C(=O)NCCCc1ccccc1
## Output 0.25

## Input Please give the measured Time for this molecule: CCCC(CCC)C(=O)[O-].[Na+] [VALPROATE SODIUM]
## Output 0.5

## Input Please give the measured Time for this molecule: CC(C)[C@@H](N)C(=S)NCc1ccccc1
## Output 0.25

## Input Please give the measured Time for this molecule: CC[C@H](C)C(=O)NCc1ccccc1
## Output 0.25

## Input Please give the measured Time for this molecule: CC(C)[C@@H](N)C(=O)OCc1ccccc1
## Output 0.25

## Input Please give the measured Time for this molecule: CC(C)[C@@H](N)C(=O)NCCc1ccccc1
## Output 0.24

## Input Please give the measured Time for this molecule: CCC1(c2ccccc2)C(=O)NC(=O)NC1=O
## Output 0.5

## Input Please give the measured Time for this molecule: CC(C)[C@@H](N)C(=O)NCC1CCCCC1
## Output 0.25

## Input Please give the measured Time for this molecule: CC(C)[C@@H](N)CNCc1ccccc1
## Output 0.25

## Input Please give the measured Time for this molecule: CC(C)[C@@H](N)C(=O)NCCCCc1ccccc1
## Output 0.25

## Input Please give the measured Time for this molecule: CC(C)[C@@H](N)C(=O)NCc1cccc(OC(F)(F)F)c1
## Output 1

## Input Please give the measured Time for this molecule: CC[C@@H](O)C(=O)NCc1ccccc1
## Output 0.25

* * *

# Tested on: Mus musculus
# Procedure Text: Anticonvulsant activity in ip dosed albino CF1 mouse assessed as time of peak effect by maximal electroshock seizures test in presence of 50 miliamperes of electric current
# Type: functional
Measured Quantity: Time
Show the value, then the unit it is measured in.

## Input Please give the measured Time for this compound: CC(C)[C@@H](N)C(=O)OCc1ccccc1
## Output 0.5 h

## Input Please give the measured Time for this compound: CC(C)[C@@H](N)C(=O)NCCc1ccccc1F
## Output 0.25 h

## Input Please give the measured Time for this compound: CC(C)[C@@H](N)C(=O)NCCc1ccccc1
## Output 0.25 h

## Input Please give the measured Time for this compound: CCC(C)C(=O)NCc1ccccc1 (racemic)
## Output 0.25 h

## Input Please give the measured Time for this compound: CC(C)[C@H](C(=O)NCc1ccccc1)N(C)C
## Output 0.5 h

## Input Please give the measured Time for this compound: CC[C@H](C)C(=O)NCc1ccccc1
## Output 0.5 h

## Input Please give the measured Time for this compound: CC[C@@H](O)C(=O)NCc1ccccc1
## Output 0.5 h

## Input Please give the measured Time for this compound: CC(C)[C@@H](N)C(=O)NCC1CCCCC1
## Output 0.5 h

## Input Please give the measured Time for this compound: CC(C)[C@@H](N)C(=O)NCCCc1ccccc1
## Output 0.25 h

## Input Please give the measured Time for this compound: CCC1(c2ccccc2)C(=O)NC(=O)NC1=O [PHENOBARBITAL]
## Output 1 h

## Input Please give the measured Time for this compound: CC(C)[C@@H](N)C(=O)NCCCCc1ccccc1
## Output 0.25 h

## Input Please give the measured Time for this compound: CC(C)[C@@H](N)C(=O)NCc1cccc(OC(F)(F)F)c1
## Output 0.25 h

## Input Please give the measured Time for this compound: CCCC(CCC)C(=O)[O-].[Na+] [VALPROATE SODIUM]
## Output 0.5 h

## Input Please give the measured Time for this compound: CC(C)[C@@H](N)C(=S)NCc1ccccc1
## Output 0.5 h

## Input Please give the measured Time for this compound: CC(C)[C@@H](N)C(=O)Nc1ccccc1
## Output 0.5 h

## Input Please give the measured Time for this compound: COC[C@@H](NC(C)=O)C(=O)NCc1ccccc1 [LACOSAMIDE]
## Output 0.5 h

## Input Please give the measured Time for this compound: CC(C)[C@@H](N)CNCc1ccccc1
## Output 0.5 h

## Input Please give the measured Time for this compound: O=C1NC(=O)C(c2ccccc2)(c2ccccc2)N1 [PHENYTOIN]
## Output 2 h

## Input Please give the measured Time for this compound: CC(C)[C@@H](N)C(=O)NCc1ccccc1OC(F)(F)F
## Output 0.25 h

## Input Please give the measured Time for this compound: CC(C)[C@@H](N)C(=O)NCCc1cccc(F)c1
## Output 0.25 h

* * *

# Species on record: Mus musculus
# Procedure Text: Protective index, ratio of TD50 for albino CF1 mouse by rotarod test to ED50 for albino CF1 mouse by maximal electroshock seizures test
# Assay type: functional
Give PI for every item shown.
Provide a numeric answer; units are not to be included.

## Input Please give the measured PI for this molecule: CC(C)[C@@H](N)C(=O)NCc1ccccc1OC(F)(F)F
## Output 5.5

## Input Please give the measured PI for this molecule: CC(C)[C@@H](N)C(=O)NCCCCc1ccccc1
## Output 3.5

## Input Please give the measured PI for this molecule: CCC(C)C(=O)NCc1ccccc1 (racemic)
## Output 2.9

## Input Please give the measured PI for this molecule: COC[C@@H](NC(C)=O)C(=O)NCc1ccccc1 [LACOSAMIDE]
## Output 6

## Input Please give the measured PI for this molecule: CC(C)[C@@H](N)C(=O)NCCc1ccccc1F
## Output 2.9

## Input Please give the measured PI for this molecule: CC(C)[C@@H](N)C(=O)NCCc1cccc(F)c1
## Output 3.4

## Input Please give the measured PI for this molecule: CC(C)[C@@H](N)C(=O)NCCCc1ccccc1
## Output 2.7

## Input Please give the measured PI for this molecule: CC(C)[C@@H](N)C(=O)NCCc1ccccc1
## Output 5

## Input Please give the measured PI for this molecule: CC(C)[C@@H](N)C(=O)NCc1cccc(OC(F)(F)F)c1
## Output 4.2

## Input Please give the measured PI for this molecule: CCC1(c2ccccc2)C(=O)NC(=O)NC1=O
## Output 3

* * *

Give ED50 for every item shown.
# Test system: Mus musculus
# Procedure Text: Anticonvulsant activity in ip dosed albino CF1 mouse assessed as protection against maximal electroshock-induced seizures in presence of 50 miliamperes of electric current
# Assay type: functional
Answer format: numeric, mg/kg implied, no suffix.

## Input Please give the measured ED50 for this molecule: CC(C)[C@@H](N)CNCc1ccccc1
## Output 30

## Input Please give the measured ED50 for this molecule: CC(C)[C@@H](N)C(=O)NCCc1ccc(F)cc1
## Output 10

## Input Please give the measured ED50 for this molecule: CC(C)[C@@H](N)C(=O)NCCc1ccccc1F
## Output 27

## Input Please give the measured ED50 for this molecule: CC(C)[C@@H](N)C(=S)NCc1ccccc1
## Output 30

## Input Please give the measured ED50 for this molecule: CC[C@@H](O)C(=O)NCc1ccccc1
## Output 100

## Input Please give the measured ED50 for this molecule: CC(C)[C@@H](N)C(=O)NCC1CCCCC1
## Output 30

## Input Please give the measured ED50 for this molecule: CC(C)[C@@H](N)C(=O)NCCCCc1ccccc1
## Output 11

## Input Please give the measured ED50 for this molecule: CCCC(CCC)C(=O)[O-].[Na+] [VALPROATE SODIUM]
## Output 270

## Input Please give the measured ED50 for this molecule: CC[C@H](C)C(=O)NCc1ccccc1
## Output 100

## Input Please give the measured ED50 for this molecule: CCC(C)C(=O)NCc1ccccc1 (racemic)
## Output 56

## Input Please give the measured ED50 for this molecule: CC(C)[C@@H](N)C(=O)NCCc1ccccc1
## Output 10

## Input Please give the measured ED50 for this molecule: CC(C)[C@@H](N)C(=O)Nc1ccccc1
## Output 30

## Input Please give the measured ED50 for this molecule: CC(C)[C@@H](N)C(=O)CCc1ccccc1.Cl
## Output 30

* * *

# Tested on: Rattus norvegicus
# Procedure Text: Anticonvulsant activity in po dosed albino Sprague-Dawley rat assessed as protection against maximal electroshock-induced seizures in presence of 150 miliamperes of electric current
# Assay type: functional
Measured Quantity: ED50

## Input Please give the measured ED50 for this molecule: CC(C)[C@@H](N)C(=O)NCCCCc1ccccc1
## Output > 30 mg/kg

## Input Please give the measured ED50 for this molecule: CC(C)[C@@H](N)C(=S)NCc1ccccc1
## Output < 30 mg/kg

## Input Please give the measured ED50 for this molecule: CC(C)[C@@H](N)C(=O)OCc1ccccc1
## Output > 30 mg/kg

## Input Please give the measured ED50 for this molecule: CC[C@H](C)C(=O)NCc1ccccc1
## Output > 30 mg/kg

## Input Please give the measured ED50 for this molecule: CC(C)[C@@H](N)C(=O)NCCc1ccccc1
## Output < 30 mg/kg

## Input Please give the measured ED50 for this molecule: CCC1(c2ccccc2)C(=O)NC(=O)NC1=O
## Output 9.1 mg/kg

## Input Please give the measured ED50 for this molecule: CC[C@@H](O)C(=O)NCc1ccccc1
## Output > 30 mg/kg

## Input Please give the measured ED50 for this molecule: CC(C)[C@@H](N)C(=O)NCCCc1ccccc1
## Output < 30 mg/kg

## Input Please give the measured ED50 for this molecule: O=C1NC(=O)C(c2ccccc2)(c2ccccc2)N1
## Output 30 mg/kg

## Input Please give the measured ED50 for this molecule: CC(C)[C@@H](N)CNCc1ccccc1
## Output > 30 mg/kg

## Input Please give the measured ED50 for this molecule: CC(C)[C@@H](N)C(=O)NCc1ccccc1OC(F)(F)F
## Output 33 mg/kg

## Input Please give the measured ED50 for this molecule: CC(C)[C@@H](N)C(=O)NCC1CCCCC1
## Output 15 mg/kg

## Input Please give the measured ED50 for this molecule: CC(C)[C@@H](N)C(=O)NCc1cccc(OC(F)(F)F)c1
## Output 10 mg/kg

## Input Please give the measured ED50 for this molecule: CCC(C)C(=O)NCc1ccccc1 (racemic)
## Output 51 mg/kg

## Input Please give the measured ED50 for this molecule: CC(C)[C@@H](N)C(=O)NCCc1cccc(F)c1
## Output 38 mg/kg
